test system: A498 renal; assay: NCI tumour cell line growth inhibition, 48 h
MEASURED ENDPOINT: TGI (µM)
Please reply with the bare figure in µM and do not write the unit itself.

>  <COMPOUND>
COc1cc(S(=O)(=O)Nc2ccc(-c3csc(N4C(=O)C(Cl)C4c4cccc(Oc5ccccc5)c4)n3)cc2)ccc1Cl (stereo unspecified)

>  <MEASURED ENDPOINT>
TGI

>  <UNITS>
µM

>  <RESULT VALUE>
64.8

$$$$
>  <COMPOUND>
CC(C)(C)c1cc(C(=O)C2Cc3ccccc3C(=O)O2)cc(C(C)(C)C)c1O (stereo unspecified)

>  <MEASURED ENDPOINT>
TGI

>  <UNITS>
µM

>  <RESULT VALUE>
26.7

$$$$
>  <COMPOUND>
Cc1cc(C)nc(NS(=O)(=O)c2ccc(Nc3c4ccccc4nc4c(C(=O)Nc5ccc(S(=O)(=O)Nc6cc(C)on6)cc5)ccc(Cl)c34)cc2)n1

>  <MEASURED ENDPOINT>
TGI

>  <UNITS>
µM

>  <RESULT VALUE>
38.3

$$$$

Query: Recorded TGI for Oc1cc(Cl)cc2cc(Cl)cnc12 with A498 renal, please?
Response: 34.5

Query: Find the measured TGI: item C=C(C)[C@@H]1CC[C@]2(COCCCNCCCN)CC[C@]3(C)[C@H](CC[C@@H]4[C@@]5(C)CC[C@H](OCCCN)C(C)(C)[C@@H]5CC[C@]43C)[C@@H]12 , target or system A498 renal.
Response: 14.4
